Taken from ChEMBL document CHEMBL1129631.

Target: Sigma 2 receptor
Experiment: Displacement of [3H]-DTG from Sigma opioid receptor type 2 in rat liver membrane
Each record's Ki is compared with Low: < 300 nM; Mid: ≥ 300 nM and < 1000 nM; High: ≥ 1000 nM to give its class.

In [3]: df
Out[3]:
                                    molecule  category
 0       CN(CCc1ccccc1[N+](=O)[O-])CCN1CCCC1       Mid
 1  CN(CCN1CCCC1)C(=O)Cc1ccc([N+](=O)[O-])cc1       Mid
 2               COc1cccc(CCN(C)CCN2CCCC2)c1       Low
 3           COc1ccc(CC(=O)N(C)CCN2CCCC2)cc1      High
 4             COc1ccccc1CC(=O)N(C)CCN1CCCC1      High
 5   CN(CCN1CCCC1)C(=O)Cc1ccccc1[N+](=O)[O-]      High
 6  CN(CCN1CCCC1)C(=O)Cc1cccc([N+](=O)[O-])c1       Mid
 7     CN(CCc1ccc([N+](=O)[O-])cc1)CCN1CCCC1       Low
 8     CN(CCc1cccc([N+](=O)[O-])c1)CCN1CCCC1       Low
 9               COc1ccc(CCN(C)CCN2CCCC2)cc1       Low
10                 COc1ccccc1CCN(C)CCN1CCCC1       Low
11                CN(CCc1cccc(N)c1)CCN1CCCC1      High
12                  CN(CCc1ccccc1N)CCN1CCCC1       Mid
13           COc1cccc(CC(=O)N(C)CCN2CCCC2)c1      High
